- target.or.test.system: VIM-1 (Pseudomonas aeruginosa (strain ATCC 15692 / DSM 22644 / CIP 104116 / JCM 14847 / LMG 12228 / 1C / PRS 101 / PAO1))
- test.name: Enzyme activity: determination of IC50, fluorescence assay with CCF2-FA substrate (VIM-1)
- Assay type: biochemical
- condition.notes: VIM-1 enzyme, CCF2-FA fluorescence assay; read-out: VIM-1 IC50
attribute.measured: IC50

# count of solved cases: 5
1. NS(=O)(=O)c1cccc(-c2snc3cccnc23)c1-c1nnn[nH]1	19.9 nM
2. NS(=O)(=O)c1cccc(-c2ccc(CN[C@@H]3CC[C@H](O)C3)cc2)c1-c1nnn[nH]1	667 nM
3. NC1Cc2ccc(-c3ccc(C(F)(F)F)c(S(N)(=O)=O)c3-c3nn[nH]n3)cc2C1 (centres unmarked)	0.268 nM
4. Cc1cc(-c2nnn[nH]2)c(S(N)(=O)=O)cc1C	156000 nM
5. CN1CC(NCc2ccc(-c3cccc(S(N)(=O)=O)c3-c3nnn[nH]3)cc2)C1	1190 nM

-- ask Report IC50, nothing else, for this molecule: "NS(=O)(=O)c1cccc(-c2cnc3ccccn23)c1-c1nnn[nH]1"
-- reply 5.41 nM

-- ask Report IC50, nothing else, for this molecule: "N=C(N)N1CC(c2ccc(-c3ccc(C(F)(F)F)c(S(N)(=O)=O)c3-c3nn[nH]n3)cc2)C1"
-- reply 0.175 nM

-- ask Report IC50, nothing else, for this molecule: "NS(=O)(=O)c1c(C(F)(F)F)ccc(C2CC2)c1-c1nnn[nH]1"
-- reply 9.83 nM

-- ask Report IC50, nothing else, for this molecule: "NS(=O)(=O)c1c(CCC2CCNCC2)ccc(-c2ccc(C3CCNCC3)cc2)c1-c1nn[nH]n1"
-- reply 10.4 nM

-- ask Report IC50, nothing else, for this molecule: "NS(=O)(=O)c1cccc(-c2ccc(N3CCCCC3)nc2)c1-c1nn[nH]n1"
-- reply 3650 nM

-- ask Report IC50, nothing else, for this molecule: "Nc1nc2cccc(-c3cccc(S(N)(=O)=O)c3-c3nn[nH]n3)c2[nH]1"
-- reply 17.3 nM

-- ask Report IC50, nothing else, for this molecule: "Nc1ccc(CCc2cccc(S(N)(=O)=O)c2-c2nn[nH]n2)cn1"
-- reply 450 nM

-- ask Report IC50, nothing else, for this molecule: "Cc1ccc(C(F)(F)F)c(S(N)(=O)=O)c1-c1nnn[nH]1"
-- reply 70.4 nM

-- ask Report IC50, nothing else, for this molecule: "Cc1ccc(-c2ccc(Cl)c(S(N)(=O)=O)c2-c2nn[nH]n2)cc1"
-- reply 11.5 nM

-- ask Report IC50, nothing else, for this molecule: "Cc1ccc(-c2cc(-c3ccc(C(N)=O)cc3)cc(S(N)(=O)=O)c2-c2nn[nH]n2)cc1"
-- reply 127 nM

-- ask Report IC50, nothing else, for this molecule: "CN(C)CCCN(C)Cc1ccc(-c2cccc(S(N)(=O)=O)c2-c2nnn[nH]2)cc1"
-- reply 1680 nM

-- ask Report IC50, nothing else, for this molecule: "NS(=O)(=O)c1cccc(-c2ccc(N3CCOCC3)nc2)c1-c1nn[nH]n1"
-- reply 151 nM

---

- target.or.test.system: IMP-1 (Serratia marcescens)
- Sequence (P52699 whole entry, looked up): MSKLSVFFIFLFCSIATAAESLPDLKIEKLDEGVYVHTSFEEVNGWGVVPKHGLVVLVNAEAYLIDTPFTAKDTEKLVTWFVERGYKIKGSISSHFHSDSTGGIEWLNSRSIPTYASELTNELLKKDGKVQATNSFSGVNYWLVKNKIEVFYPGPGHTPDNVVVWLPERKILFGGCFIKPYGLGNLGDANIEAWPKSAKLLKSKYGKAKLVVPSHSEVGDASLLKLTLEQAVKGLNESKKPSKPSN
- test.name: biochemical
- Assay type: biochemical
- condition.notes: fluorescence assay with CCF2-FA substrate; read-out: IMP-1 IC50
Recorded pIC50 for the following compounds
To interpret pIC50, take it as minus log10 of a concentration measured in moles per litre.

# count of solved cases: 10
1. NS(=O)(=O)c1c(C(F)(F)F)ccc(N2CCN(CCO)CC2)c1-c1nnn[nH]1 [Example 759]	7.39
2. NS(=O)(=O)c1c(C(F)(F)F)ccc(N2CC[C@H]3NCCO[C@@H]3C2)c1-c1nnn[nH]1 [Example 773]	7.77
3. NS(=O)(=O)c1cccc(-c2ccc(OCCN3CCCCC3)cc2)c1-c1nn[nH]n1 [Example 89]	6.50
4. COc1ccc(-c2cccc(S(N)(=O)=O)c2-c2nn[nH]n2)cc1 [Example 8]	7.11
5. NS(=O)(=O)c1cccc(-c2nccs2)c1-c1nn[nH]n1 [Example 35]	5.57
6. NC1CCC(N2CC(c3ccc(-c4ccc(C(F)(F)F)c(S(N)(=O)=O)c4-c4nnn[nH]4)cc3)C2)CC1 (centres unmarked) [Example 809]	7.95
7. NS(=O)(=O)c1cccc(-c2cnc(N3CCOCC3)nc2)c1-c1nn[nH]n1 [Example 94]	6.78
8. C[N+]1(C)CCC(c2ccc(-c3cccc(S(N)(=O)=O)c3-c3nnn[nH]3)cc2)CC1.O=C([O-])C(F)(F)F [Example 33, 2,2,2-trifluoroacetate]	7.15
9. NS(=O)(=O)c1cccc(-c2ccc3c(c2)CCCO3)c1-c1nn[nH]n1 [Example 85]	7.02
10. CC(C)c1cccc(S(N)(=O)=O)c1-c1nnn[nH]1 [Example 156]	6.29

-- ask Report pIC50, nothing else, for this compound: COc1cncc(-c2cccc(S(N)(=O)=O)c2-c2nn[nH]n2)n1 [Example 40]
-- reply 5.52

-- ask Report pIC50, nothing else, for this compound: NS(=O)(=O)c1cccc(-c2ccc3c(=O)nc[nH]c3c2)c1-c1nn[nH]n1 [Example 69]
-- reply 6.63

-- ask Report pIC50, nothing else, for this compound: NS(=O)(=O)c1ccnc(-c2ccc(CO)cc2)c1-c1nnn[nH]1 [Example 188]
-- reply 6.11

-- ask Report pIC50, nothing else, for this compound: NS(=O)(=O)c1cccc(-c2cncnc2)c1-c1nn[nH]n1 [Example 42]
-- reply 4.98
